# Test system: OVCAR-4 ovarian
# test-description: NCI tumour cell line growth inhibition, 48 h
Task for the reader: assign each of the following compounds its reported TGI.

Example compounds with recorded TGI:
compound: CC(=O)N1C(OCc2ccccc2)CCN1c1ccccc1 (stereo not drawn)
TGI: > 10 µM
--
compound: COc1cccc2c(Nc3ccc(C(=O)NCCN(C)C)cc3)cc(-c3ccccc3)nc12
TGI: > 100 µM
--
compound: O=C(Nc1cccc(C(F)(F)F)c1)c1cc(-c2ccccc2)nc(=S)[nH]1
TGI: > 100 µM

Lab note: each compound below needs its TGI filled in.
1. O=C(CC(=O)c1ccccc1NC1=Cc2ccccc2C(=O)C1=O)C(=O)NC1=C(Cl)C(=O)c2ccccc2C1=O
2. C=C(C(=O)OC)[C@@H]1C[C@@H](O)[C@]2(C)CC/C=C(\C)CCC[C@H](C)[C@H](O)C1O2

15.1 µM
> 100 µM

====

# Test system: CAKI-1 renal
# test-description: NCI tumour cell line growth inhibition, 48 h
test-readout: TGI

Solved entries (count: 5):
compound: COc1cc([C@@H]2c3cc4c(cc3[C@@H](Nc3ccc(NC(=O)c5cc(NC(=O)c6cc([N+](=O)[O-])cn6C)cn5C)cc3)[C@H]3COC(=O)[C@H]23)OCO4)cc(OC)c1O
TGI: > 28.5 µM
//
compound: O=C(c1ccccc1)n1[nH]c(=O)n(-c2ccc(Cl)cc2)c1=O
TGI: > 100 µM
//
compound: CCOC(=O)/C=C1/Nc2cc(F)c(F)cc2NC1=O
TGI: > 100 µM
//
compound: CCOC(=O)CN(Cc1ccccc1)Cc1c(C(=O)c2ccccc2)c2ccccc2n1C(=O)c1ccccc1
TGI: > 100 µM
//
compound: CCOC(=O)C1(C(=O)OCC)CC=C(C)CC12C(=O)Nc1ccccc12 (stereo not drawn)
TGI: > 100 µM

Required: TGI, one value per compound below.
1. O=[N+]([O-])c1ccc(-[n+]2ccc3ccccc3c2)c([N+](=O)[O-])c1
2. CCCN1C(=O)/C(=C(/O)C(=O)OCC)C(c2ccc(OC)c(OC)c2)C1=O (stereo not drawn)
3. O=[N+]([O-])c1cc(Cl)ccc1S(=O)(=O)c1cc(Cl)cc2c1NCCC2

1. 8.74 µM
2. > 100 µM
3. > 100 µM

Working through the 8 compounds below one at a time, give TGI for each.
1. O=C1C=C(Nc2nc(C(=O)O)cc(=O)[nH]2)c2ccccc2C1=O
2. COc1cc(C)cc(OC)c1/C=C/C(=O)O
3. COc1ccc(/C=C/C(c2cc(OC)c(OC)c(OC)c2)n2cncn2)cc1O (stereo not drawn)
4. CC(C)(C)OC(=O)N1C/C=C\C(=O)C2(OCCO2)c2ccccc21
5. C=C1C(=O)O[C@H]2[C@H]1CC(=O)/C(C)=C\CC[C@@]1(C)O[C@@H]21
6. Cc1nn(C)c(=O)c2nn(-c3ccccc3)c(C)c12
7. O=C1c2ccccc2C2(O)Oc3cccc(O)c3C12O (stereo not drawn)
8. CSc1nc(=O)c(C#N)c(-c2ccccc2)n1C1OC(COC(C)=O)C(OC(C)=O)C(OC(C)=O)C1OC(C)=O (stereo not drawn)

1. > 100 µM
2. > 100 µM
3. > 100 µM
4. > 100 µM
5. 3.45 µg/mL
6. > 100 µM
7. > 100 µM
8. > 100 µM

List the reported TGI of each compound below.
1. Cc1cnc2[nH]c(-c3cccc(Cl)c3)cc(=O)c2c1
2. CC(C)(C)C(=O)OCC(COC(=O)C(C)(C)C)[N+](=O)[O-]

1. 59.7 µM
2. > 100 µM

====

# Test system: EKVX NSCLC
# test-description: NCI tumour cell line growth inhibition, 48 h
Assignment: determine reported TGI for the given compounds.

Reference set, count: 4
compound: NC(=S)N/N=C(\C(=O)Nc1ccc(Cl)c(Cl)c1)C1=NN(c2ccccc2)C(c2cccc([N+](=O)[O-])c2)CC1=O (centres undefined)
measured-on: EKVX NSCLC
test-readout: TGI
result: > 100 µM
--
compound: COC1CCC(n2c([C@@H]3CCCC(=O)N3c3ccc(F)c(F)c3)nc3cc(-c4c(C)noc4C)ccc32)CC1 (some centres undefined)
measured-on: EKVX NSCLC
test-readout: TGI
result: > 100 µM
--
compound: CC(C)(C)c1cc(C2NC(=O)NC2=O)cc(C(C)(C)C)c1O (centres undefined)
measured-on: EKVX NSCLC
test-readout: TGI
result: > 100 µM
--
compound: CN(Cc1ccccc1)C1(N(C)Cc2ccccc2)CC1
measured-on: EKVX NSCLC
test-readout: TGI
result: > 100 µM

Here are 4 compounds. What values of TGI were reported for them?
1. COc1cccc(/C=N/n2c(Cc3ccc(Cl)cc3)n[nH]c2=O)c1
2. C/C(=N\n1c(Cc2ccccc2)n[nH]c1=O)c1ccc([N+](=O)[O-])cc1
3. Nc1c(O)c(S(=O)(=O)O)c(O)c2c1C(=O)c1ccccc1C2=O
4. O=C1CCC(=O)C12CCc1cccc(O)c12

["> 84 µM", "> 100 µM", "> 100 µM", "> 100 µM"]

====

Provide the recorded TGI for the entries that follow.
# System: RXF 393 renal
# test-description: NCI tumour cell line growth inhibition, 48 h

# per-item lookup of TGI; items listed below
1. CC1=N/C(=C\c2ccc([N+](=O)[O-])cc2)C(=O)O1
2. Cn1c(=O)c2[nH]c(-n3nc(-c4ccccc4)cc3N)nc2n(C)c1=O
3. CC(C)c1ccc(O)c(=O)cc1

1: > 100 µM; 2: > 100 µM; 3: > 86.2 µM

====

Give TGI for every item shown.
# Test system: DU-145 prostate
# test-description: NCI tumour cell line growth inhibition, 48 h

Worked cases, TGI given:
molecule: N#CI1OC(C(F)(F)F)(C(F)(F)F)c2ccccc21
TGI: 38.4 µM

molecule: O=C(Nc1ccccc1F)c1ccc(NC2=C(Cl)C(=O)N(Cc3ccccc3)C2=O)cc1
TGI: 4.34 µM

molecule: CN(C)/C=N/S(=O)(=O)c1nn2c(C=O)c(-c3cc4ccccc4oc3=O)nc2s1
TGI: > 36.6 µM

I would be grateful if you could provide TGI for each of the following entries.
1. O=C(c1ccccc1)n1[nH]c(=O)n(-c2ccc(Cl)cc2)c1=O
2. C=CCc1cccc2cc(C(=O)Nc3nc(C45CC6CC(CC(C6)C4)C5)cs3)c(=O)oc12
3. COc1cc(C2c3cc4c(cc3OC(N3CCOCC3)C2C)OCO4)cc(OC)c1OC(C)=O (stereo unspecified)
4. O=[N+]([O-])c1ccc2c(c1)S(=O)c1ccccc1-2 (stereo unspecified)

> 100 µM
> 100 µM
> 92.5 µM
> 100 µM

Required: TGI, one value per molecule below.
1. c1csc(-c2nnc(C34CC5CC(CC(C5)C3)C4)o2)c1
2. COc1cccc(/C=N/n2c(Cc3ccc(Cl)cc3)n[nH]c2=O)c1
3. Cc1csc2n(C)c(=O)c3ccccc3[n+]12
4. COc1ccc2c(c1)C(=O)c1c-2n(CCCCl)c(=O)c2cc(N(C)C)ccc12
5. Cc1cnc2[nH]c(-c3cccc(Cl)c3)cc(=O)c2c1

> 100 µM
> 100 µM
> 100 µM
> 100 µM
> 57.8 µM

For the 2 molecules below, give their TGI values.
1. C=C1C(=O)O[C@H]2[C@H]1CC/C(COC(=O)C(=O)c1cn(C)c3ccc(OC)cc13)=C\CC[C@@]1(C)O[C@@H]21
2. CC(C)(C)c1cc(C2NC(=O)NC2=O)cc(C(C)(C)C)c1O (stereo unspecified)

15.5 µM
> 100 µM

Would you be so kind as to report TGI for each listed record?
1. COc1ccc(C(=O)N/N=C/c2ccc(O)cc2O)cc1Nc1ccnc(C(F)(F)F)c1
2. C=C(COC(=O)C(C)C)[C@H]1Oc2ccc(C(C)=O)cc2[C@@H]1OC(=O)C(C)C
3. O=[N+]([O-])c1ccc(Cl)cc1N/N=C/c1cccs1
4. Cc1ccccc1NC(=O)c1sc2nc3c(cc2c1N)C(=O)CCC3
5. CC(C)C[C@H](NC(=O)[C@H](CCc1ccccc1)NC(=O)c1ccc2ccccc2n1)B(O)O
6. CC(C)(CCC(C)(C)c1ccccc1)c1ccccc1
7. COc1cccc2c(Nc3ccc(C(=O)NCCN(C)C)cc3)cc(-c3ccccc3)nc12

15.2 µM
> 100 µM
> 100 µM
8.41 µM
3.49 µM
38.5 µM
33 µM

====

Kindly supply the reported TGI values for the records listed here.
# System: LOX IMVI melanoma
# test-description: NCI tumour cell line growth inhibition, 48 h

Here is how some molecules turned out for TGI.
molecule: Cc1ccccc1NC(=O)c1sc2nc3c(cc2c1N)C(=O)CCC3
TGI: > 100 µM
//
molecule: CC(=O)C(C(=O)C(C)(C)C)C(=O)C(C)(C)C
TGI: > 100 µM

Please examine the following record next.
Dear colleague, I am looking for the recorded TGI of the following molecule: COC(=O)C(=O)C(C#N)c1ccc(Cl)c(Cl)c1 (stereo not drawn)
> 100 µM
